# test: ATG_M_19_CIS: Attagene CIS-FACTORIAL HepG2 Assay for M19 Transcription Factor (Internal Marker) (AID 2282939)
# protocol_conditions: HepG2 Attagene CIS-FACTORIAL M19 internal marker reporter; actives raise or lower the signal
Activity calls are given as the source filed them. How the source made its calls: active means hit-call score of the fitted dose curve at least 0.9, where 1 is the maximum; inactive means score below 0.9.
Choose the fitting class; nothing outside 1.0 for active, 0.0 for inactive is accepted.

Record excerpt, results attached:
smiles_data | group
CCCCCCCCCCCCCCCCCC(=O)O | 0.0
CCNc1cccc(C)c1 | 0.0

Query block: Would you mind telling me which call this test gave C1CCC(SSC2CCCCC2)CC1 ?
Result block: 0.0

Query block: Same read-out for CCCCCCCCCCO ?
Result block: 0.0

Query block: Same read-out for C[C@]12C=CC(=O)C=C1CC[C@@H]1[C@@H]2C(=O)C[C@@]2(C)[C@H]1CC[C@]2(O)C(=O)CO ?
Result block: 0.0

Query block: Same read-out for CC1=C(/C=C/C(C)=C/C=C/C(C)=C/CO)C(C)(C)CCC1 ?
Result block: 1.0

Query block: Same read-out for COc1cc(S(=O)(=O)O)c(C)cc1N=Nc1c(O)ccc2cc(S(=O)(=O)O)ccc12 ?
Result block: 0.0

Query block: Same read-out for C=CCOC(=O)c1ccccc1C(=O)OCC=C ?
Result block: 0.0

Query block: Same read-out for CNC(=O)[C@H]1O[C@@H](n2cnc3c(NCc4cc(Cl)ccc4OCc4cc(C)no4)ncnc32)[C@H](O)[C@@H]1N ?
Result block: 0.0

Query block: Same read-out for NCC1(Cc2noc(=O)[nH]2)CCCCC1 ?
Result block: 0.0

Query block: Same read-out for Nc1ccc2c(c1)C(=O)c1ccccc1C2=O ?
Result block: 0.0

---

# Test system: 5-hydroxytryptamine receptor 2C (pig)
# test: NVS_GPCR_p5HT2C: NovaScreen (NVS) G Protein-Coupled Receptor Assay for pig Serotonin, 5-Hydroxytryptamine Receptor 2C (5HT2C) (AID 2283288)
Results filed as inconclusive are left out. Active and inactive are the calls of the source. Rule for the calls: active = hit-call score of the fitted dose curve at least 0.9, where 1 is the maximum; inconclusive = response in the unintended direction; inactive = score below 0.9.
reported_metric: AC50

smiles_data | AC50
NC(=O)Cn1c(=O)cc(CCN2CCN(c3nccc4sccc34)CC2)c2ccc(F)cc21 | 9.74 nM (active)
Oc1ccc2c(c1)OC[C@@H](N1CCC(O)(c3ccc(F)cc3)CC1)[C@H]2O | inactive
C=CCOC(=O)c1ccccc1C(=O)OCC=C | 25000 nM (active)
CCOC(=O)CCC(=O)OCC | inactive

Could you now consider this next compound?
Query block: Item CN1CCN(Cc2cc(-c3ccc4[nH]c(=O)oc4c3)co2)[C@@H](c2ccc(F)cc2)C1 has what recorded AC50?
Result block: 250 nM (active)

---

# target: human Caspase 4 (CASP4), CASP4 (gene 837) (UniProt P49662)
# Sequence (P49662 whole entry, looked up): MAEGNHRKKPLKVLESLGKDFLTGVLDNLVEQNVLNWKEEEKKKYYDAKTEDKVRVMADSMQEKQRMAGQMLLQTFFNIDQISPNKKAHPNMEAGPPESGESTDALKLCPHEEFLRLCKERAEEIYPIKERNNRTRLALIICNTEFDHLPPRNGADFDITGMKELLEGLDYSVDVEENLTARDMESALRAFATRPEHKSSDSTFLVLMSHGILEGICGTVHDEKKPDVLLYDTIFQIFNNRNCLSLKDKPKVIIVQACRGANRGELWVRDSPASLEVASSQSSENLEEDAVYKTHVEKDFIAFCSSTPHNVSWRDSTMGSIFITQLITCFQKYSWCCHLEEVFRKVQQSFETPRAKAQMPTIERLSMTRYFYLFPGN
# test: NVS_ENZ_hCASP4: NovaScreen (NVS) Enzymatic Assay for human Caspase 4 (CASP4) (AID 2283143)
Results filed as inconclusive are left out. The source made the active and inactive calls. The calls were made as follows: active = hit-call score of the fitted dose curve at least 0.9, where 1 is the maximum; inconclusive = response in the unintended direction; inactive = score below 0.9.
Choose the fitting class; nothing outside active, inactive is accepted.

molecule | group
Cc1nc(-c2ccc3c(c2)CCN(CCC2CCC(NC(=O)/C=C/c4ccc(F)cc4)CC2)CC3)no1 (configuration not stated) | inactive

Query block: Would you mind telling me which call this test gave CCc1c(C(=O)NN2CCCCC2)nn(-c2ccc(Cl)cc2Cl)c1-c1ccc(Br)cc1 ?
Result block: inactive

Query block: Same read-out for O=c1c(O)c(-c2ccc(O)c(O)c2)oc2cc(O)cc(O)c12 ?
Result block: inactive

Query block: Same read-out for COc1cc(-c2nc(NC(=O)c3cc4cc(C)cc(C)c4n3CC(=O)O)sc2CCC2CCCCC2)c(OC)cc1Cl ?
Result block: active

---

# test: APR_HepG2_CellLoss_72hr: Apredica 72-hour HepG2 Assay for Cell Loss (AID 2282915)
# protocol_conditions: high-content imaging
Activity calls are given as the source filed them. Rule for the calls: active = hit-call score of the fitted dose curve at least 0.9, where 1 is the maximum; inactive = score below 0.9.
Choose the fitting class; nothing outside yes (1) = active, no (0) = inactive is accepted.

Record excerpt, results attached:
compound | group
COc1cc(S(=O)(=O)O)c(C)cc1N=Nc1c(O)ccc2cc(S(=O)(=O)O)ccc12 | no (0)
O=c1[nH]cc(F)c(=O)[nH]1 | yes (1)
NC(=O)Cn1c(=O)cc(CCN2CCN(c3nccc4sccc34)CC2)c2ccc(F)cc21 | yes (1)
Cc1cccc([N+](=O)[O-])c1C | no (0)

Query block: Would you mind telling me which call this test gave COc1cc(-c2nc(NC(=O)c3cc4cc(C)cc(C)c4n3CC(=O)O)sc2CCC2CCCCC2)c(OC)cc1Cl ?
Result block: yes (1)

Query block: Same read-out for CC=Cc1ccc(O)c(OC)c1 ?
Result block: no (0)

---

# Read-out: Pselectin, SELP (gene 6403)
# test: BSK_4H_Pselectin: BioMAP Diversity Plus: 4H Assay for Pselectin Biomarker Activity (AID 2283026)
# protocol_conditions: primary human endothelial cells (HUVEC); actives raise or lower the signal
Calls of active or inactive are those of the source. Rule for the calls: active = hit-call score of the fitted dose curve at least 0.9, where 1 is the maximum; inactive = score below 0.9.
Choose the fitting class; nothing outside active, inactive is accepted.

Record excerpt, results attached:
molecule | group
Nc1ccc2c(c1)C(=O)c1ccccc1C2=O | inactive
Cc1ccc2ncccc2c1 | inactive
CCCCc1ccc2c(n1)[C@@H](c1ccc(OC)cc1C[C@H](C)C(=O)O)[C@H](C(=O)O)[C@H]2c1ccc2c(c1)OCO2 | inactive
Clc1cc(Cl)c(Cl)cc1Cl | inactive
Oc1ccc2c(c1)OC[C@@H](N1CCC(O)(c3ccc(F)cc3)CC1)[C@H]2O | inactive
COc1ccc(C)cc1N | inactive

Query block: Would you mind telling me which call this test gave CCCCC(CC)COC(=O)CC(C(=O)OCC(CC)CCCC)S(=O)(=O)O (stereo not drawn) ?
Result block: active

---

Please provide measured AC50 for the entries that follow.
# target: human Peripheral-type Benzodiazepine Receptor (PBR), TSPO (gene 706)
# test: NVS_MP_hPBR: NovaScreen (NVS) Membrane Protein Assay for human Peripheral-type Benzodiazepine Receptor (PBR) (AID 2283331);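 further: hits reduce radioligand binding relative to DMSO baseline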
Inconclusive results are not listed. Activity calls are given as the source filed them. How the source made its calls: active means hit-call score of the fitted dose curve at least 0.9, where 1 is the maximum; inconclusive means response in the unintended direction; inactive means score below 0.9.

Examples with their reported AC50 follow.
smiles_data | AC50
NC(=O)Cn1c(=O)cc(CCN2CCN(c3nccc4sccc34)CC2)c2ccc(F)cc21 | 1.77 µM (active)
CC=Cc1ccc(O)c(OC)c1 | 17.2 µM (active)

Could you now consider this next compound?
Query block: Item C=CCOC(=O)c1ccccc1C(=O)OCC=C has what recorded AC50?
Result block: 25 µM (active)

---

# test: CCTE_Shafer_MEA_acute_network_burst_percentage: CCTE's Neural Acute Assay for Percentage of Network Bursts, Shafer Lab (AID 2284022);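 further: curves fitted for loss so actives lower network burst percentage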
Activity calls are given as the source filed them. How the source made its calls: active means hit-call score of the fitted dose curve at least 0.9, where 1 is the maximum; inactive means score below 0.9.
Choose the fitting class; nothing outside Y for active, N for inactive is accepted.

Record excerpt, results attached:
molecule | group
CC(=O)C(C)=CC1C(C)=CCCC1(C)C (stereo not drawn) | N
C=CCOC(=O)c1ccccc1C(=O)OCC=C | N
CN[C@H]1CC[C@@H](c2ccc(Cl)c(Cl)c2)c2ccc(S(N)(=O)=O)cc21 | Y
CCCCCCCCCCO | N
NS(=O)(=O)c1cc2c(cc1Cl)NCNS2(=O)=O | N
c1cc(-c2ccncc2)ccn1 | N

Query block: Would you mind telling me which call this test gave Cc1ccc2ncccc2c1 ?
Result block: N

Query block: Same read-out for FC(F)(F)C(F)(F)C(F)(F)C(F)(F)C(F)(F)C(F)(F)CCI ?
Result block: N

Query block: Same read-out for Nc1ccccc1N ?
Result block: N

---

# Tested on: SRY-box transcription factor 2 (SOX2) Protein Expression, Deisenroth Lab, SOX2 (gene 6657)
# test: CCTE_Deisenroth_DEVTOX-GLR_legacy_Sox2: (Legacy) CCTE's DevTox GLR-Endo Assay Evaluation of SRY-box transcription factor 2 (SOX2) Protein Expression, Deisenroth Lab (AID 2284346)
Active and inactive are the calls of the source. How the source made its calls: active means hit-call score of the fitted dose curve at least 0.9, where 1 is the maximum; inactive means score below 0.9.
reported_metric: AC50

Examples with their reported AC50 follow.
smiles_data | AC50
COc1ccc2c(c1)c(CC(=O)O)c(C)n2C(=O)c1ccc(Cl)cc1 | 17 µM (active)
CC1=C(/C=C/C(C)=C/C=C/C(C)=C/CO)C(C)(C)CCC1 | 55.7 µM (active)

Query block: Item O=c1[nH]cc(F)c(=O)[nH]1 has what recorded AC50?
Result block: 22 µM (active)

---

# Read-out: Caspase-3 (Homo sapiens) (UniProt P42574)
# Sequence (P42574 whole entry, looked up): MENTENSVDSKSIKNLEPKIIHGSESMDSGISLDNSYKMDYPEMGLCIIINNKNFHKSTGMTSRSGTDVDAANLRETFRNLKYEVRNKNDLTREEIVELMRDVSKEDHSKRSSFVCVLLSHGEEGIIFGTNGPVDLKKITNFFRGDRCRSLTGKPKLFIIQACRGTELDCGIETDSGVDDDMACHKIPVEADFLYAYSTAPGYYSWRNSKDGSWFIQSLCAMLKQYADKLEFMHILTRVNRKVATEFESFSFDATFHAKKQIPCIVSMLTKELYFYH
# test: LTEA_HepaRG_CASP3: Life Technologies and Expression Analysis (LTEA) Assay for cysteine-aspartic acid protease (CASP3) using HepaRG (AID 2283477)
# protocol_conditions: mRNA level, 48 h; actives raise or lower the signal
Calls of active or inactive are those of the source. How the source made its calls: active means hit-call score of the fitted dose curve at least 0.9, where 1 is the maximum; inactive means score below 0.9.
Choose the fitting class; nothing outside t for active, f for inactive is accepted.

compound | group
CC(CO)OC(C)CO (configuration not stated) (tested in a mixture with another compound) | f
Cc1c(C(=O)O)c(O)cc2c1C(=O)c1c(O)c([C@@H]3O[C@H](CO)[C@@H](O)[C@H](O)[C@H]3O)c(O)c(O)c1C2=O | f
CN[C@H]1CC[C@@H](c2ccc(Cl)c(Cl)c2)c2ccc(S(N)(=O)=O)cc21 | f
O=c1c(O)c(-c2ccc(O)c(O)c2)oc2cc(O)cc(O)c12 | f
COCCOC[C@H](CC1(C(=O)NC2CCC(C(=O)O)CC2)CCCC1)C(=O)Oc1ccc2c(c1)CCC2 (some centres not stated) | f

Query block: Would you mind telling me which call this test gave COc1cc(S(=O)(=O)O)c(C)cc1N=Nc1c(O)ccc2cc(S(=O)(=O)O)ccc12 ?
Result block: f

Query block: Same read-out for Cc1nc(C)nc(N2C[C@@H](C)N(c3ccnc([C@@H](C)O)n3)[C@@H](C)C2)n1 ?
Result block: f
